Test system: Klebsiella aerogenes DSM 30053
MEASUREMENT_DESCRIPTION: fold change of Putrescine concentration vs plate DMSO controls (fold change (ratio)); higher = more amine produced, active = hit call of the paper (significant change in both replicates, either direction)
EXPERIMENTAL_CONDITIONS: 20 µM; incubation time: 27 h, anaerobic, 37 °C
ENDPOINT_NAME: fold change of Putrescine concentration

molecule=NC(=O)CN1CCCC1=O endpoint_name="fold change of Putrescine concentration" reported=1.01
molecule=CCCCN(CCCC)SN(C)C(=O)Oc1cccc2c1OC(C)(C)C2 endpoint_name="fold change of Putrescine concentration" reported=1.02
molecule=COc1ccc(C(=O)N2CCCC2=O)cc1 endpoint_name="fold change of Putrescine concentration" reported=0.976
molecule=CCCCCCCCCCCCN=C(N)N endpoint_name="fold change of Putrescine concentration" reported=1.06
molecule="C#CCOc1ccc(CCNC(=O)C(OCC#C)c2ccc(Cl)cc2)cc1OC (stereo unspecified)" endpoint_name="fold change of Putrescine concentration" reported=1.01
molecule=Cc1cc(C)c(C2=C(OC(=O)CC(C)(C)C)C3(CCCC3)OC2=O)c(C)c1 endpoint_name="fold change of Putrescine concentration" reported=1.02

---

System: Ruminococcus gnavus DSM 108212
MEASUREMENT_DESCRIPTION: fold change of 2-Phenylethylamine concentration vs plate DMSO controls (fold change (ratio)); higher = more amine produced, active = hit call of the paper (significant change in both replicates, either direction);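 for the amine columns active = adjusted P below 0.05 in both replicates with a change the same way and a mean fold change under 0.8 or over 1.25; inactive = the rest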
EXPERIMENTAL_CONDITIONS: 20 µM; incubation time: 27 h, anaerobic, 37 °C
Structures can show the parent of a compound that is named as a salt.
Possible outcomes: active, inactive

compound="CC[C@@H](C(=O)[C@@H](C)[C@@H](O)[C@H](C)[C@@H]1O[C@@H]([C@@H](CC)C(=O)O)CC[C@@H]1C)[C@H]1O[C@]2(C=C[C@@H](O)[C@]3(CC[C@@](C)([C@H]4CC[C@](O)(CC)[C@H](C)O4)O3)O2)[C@H](C)C[C@@H]1C [Salinomycin sodium]" label_class=active
compound=N#Cc1cc(Br)c(O)c(Br)c1 label_class=inactive
compound=COP(=S)(OC)SCN1C(=O)c2ccccc2C1=O label_class=inactive
compound=CO/C=C(/C(=O)OC)c1ccccc1COc1cccc(C(F)(F)F)n1 label_class=inactive
compound="Nc1nc(N)nc(N)n1 [Melamine]" label_class=inactive
compound="COc1cccc(C2(O)CCCCC2CN(C)C)c1 (centres undefined) [Tramadol hydrochloride]" label_class=inactive
compound=COP(=O)(OC)OC=C(Cl)Cl label_class=inactive
compound="CC(C)CC(N(C)C)C1(c2ccc(Cl)cc2)CCC1 (centres undefined) [Sibutramine hydrochloride]" label_class=inactive
compound="CCCC[N+]1(C)[C@@H]2C[C@@H](OC(=O)[C@H](CO)c3ccccc3)C[C@H]1[C@@H]1O[C@@H]12 (some centres undefined) [N-Butylscopolammonium bromide]" label_class=inactive
compound="CN[C@@H]1C[C@@H](c2ccc(Cl)c(Cl)c2)c2ccccc21 [Indatraline hydrochloride]" label_class=inactive
compound=CCCCN(CCCC)SN(C)C(=O)Oc1cccc2c1OC(C)(C)C2 label_class=inactive
compound="Oc1ccc(Cc2ccc(O)cc2)cc1 [Bisphenol F]" label_class=inactive
compound="COc1ccc(CN2CCNCC2)c(OC)c1OC [Trimetazidine dihydrochloride]" label_class=inactive
compound="CCN(C(C)=O)c1cccc(-c2ccnc3c(C#N)cnn23)c1 [Zaleplon]" label_class=inactive
compound=CCOP(=S)(OCC)Oc1cc(C)nc(C(C)C)n1 label_class=inactive
compound=CCC(CC)Nc1c([N+](=O)[O-])cc(C)c(C)c1[N+](=O)[O-] label_class=inactive
compound="COC[C@@H](NC(C)=O)C(=O)NCc1ccccc1 [Lacosamide]" label_class=inactive
compound=O=C1c2ccccc2C(=O)N1SC(Cl)(Cl)Cl label_class=inactive
compound="CC1(C)C(C=C(Cl)Cl)C1C(=O)OCc1cccc(Oc2ccccc2)c1 (mixture of isomers)" label_class=inactive

---

# maps each entry to its fold change of Putrescine concentration
Test system: Escherichia coli IAI1
MEASUREMENT_DESCRIPTION: fold change of Putrescine concentration vs plate DMSO controls (fold change (ratio)); higher = more amine produced, active = hit call of the paper (significant change in both replicates, either direction)
EXPERIMENTAL_CONDITIONS: 20 µM; incubation time: 27 h, anaerobic, 37 °C
Where a name gives a salt, the structure may show the parent alone.
ENDPOINT_NAME: fold change of Putrescine concentration

molecule="CN1C(=O)CCS(=O)(=O)C1c1ccc(Cl)cc1 (stereo not drawn) [Chlormezanone]" study_target="Escherichia coli IAI1" reported=0.986
molecule="Cc1cc(C(C#N)c2ccc(Cl)cc2)c(Cl)cc1NC(=O)c1cc(I)cc(I)c1O (stereo not drawn)" study_target="Escherichia coli IAI1" reported=1.07
molecule=COP(=S)(OC)Oc1nc(Cl)c(Cl)cc1Cl study_target="Escherichia coli IAI1" reported=0.986
molecule=O=C(NC(=O)c1c(F)cccc1F)Nc1ccc(Cl)cc1 study_target="Escherichia coli IAI1" reported=0.982
molecule="COc1ccc2c(c1)[C@]13CCCC[C@@H]1[C@H](C2)N(C)CC3 [Dextromethorphan hydrobromide monohydrate]" study_target="Escherichia coli IAI1" reported=0.962
molecule="CN/C(=N/CC1CCOC1)N[N+](=O)[O-] (stereo not drawn)" study_target="Escherichia coli IAI1" reported=1.03
molecule="CCN(CC)N=O [NDEA (N-nitrosodiethylamine)]" study_target="Escherichia coli IAI1" reported=1.01
molecule="C[C@@H]1CN([C@H]2CC[C@](C#N)(c3ccc(F)cc3)CC2)CC[C@]1(C(=O)O)c1ccccc1 [Levocabastine hydrochloride]" study_target="Escherichia coli IAI1" reported=1.02
molecule="C[C@]12Cc3c[nH]nc3C[C@@H]1CC[C@@H]1[C@@H]2CC[C@@]2(C)[C@H]1CC[C@]2(C)O [Stanozolol]" study_target="Escherichia coli IAI1" reported=0.981
molecule="COCC(C)N(C(=O)CCl)c1c(C)csc1C (stereo not drawn)" study_target="Escherichia coli IAI1" reported=1.01
molecule="O=C1C2CC=CCC2C(=O)N1SC(Cl)(Cl)Cl (stereo not drawn)" study_target="Escherichia coli IAI1" reported=1
molecule="COc1ccc(C(CN(C)C)C2(O)CCCCC2)cc1 (stereo not drawn) [Venlafaxine]" study_target="Escherichia coli IAI1" reported=1.04
molecule=CCOc1cc(Oc2ccc(C(F)(F)F)cc2Cl)ccc1[N+](=O)[O-] study_target="Escherichia coli IAI1" reported=0.953
molecule="CCCCN(CCCC)N=O [DBNA (N-nitrosodibutylamine)]" study_target="Escherichia coli IAI1" reported=1.03
molecule=COc1ccc(-c2ccccc2)cc1NNC(=O)OC(C)C study_target="Escherichia coli IAI1" reported=0.991
molecule="C=C1CC[C@@]2(O)[C@H]3Cc4ccc(O)c5c4[C@@]2(CCN3CC2CC2)[C@H]1O5 [Nalmefene hydrochloride]" study_target="Escherichia coli IAI1" reported=0.99
molecule=N#Cc1cc(Br)c(O)c(Br)c1 study_target="Escherichia coli IAI1" reported=1.23
molecule="CCOC(=O)c1cncn1[C@H](C)c1ccccc1 [Etomidate]" study_target="Escherichia coli IAI1" reported=0.985
molecule="C[C@]12CC[C@H](O)C[C@H]1CC[C@@H]1[C@@H]2CC[C@]2(C)[C@@H](C3=CC(=O)OC3)CC[C@]12O [Digitoxigenin]" study_target="Escherichia coli IAI1" reported=1.03
molecule="COc1cc2c(c(OC)c1OC)-c1ccc(OC)c(=O)cc1[C@@H](NC(C)=O)CC2 [Colchicine]" study_target="Escherichia coli IAI1" reported=1.04
molecule="Nc1nc(N)nc(NC2CC2)n1 [Cyromazine]" study_target="Escherichia coli IAI1" reported=1.02
molecule="Fc1ccc([C@]2(Cn3cncn3)O[C@H]2c2ccccc2Cl)cc1 (racemic)" study_target="Escherichia coli IAI1" reported=0.935
molecule="CC(C)(N)Cc1ccccc1 [Phentermine hydrochloride]" study_target="Escherichia coli IAI1" reported=0.983
molecule=CC[C@H]1CCC[C@H](O[C@H]2CC[C@H](N(C)C)[C@@H](C)O2)[C@@H](C)C(=O)C2=C[C@@H]3[C@@H](C=C(C)[C@@H]4C[C@@H](O[C@@H]5O[C@@H](C)[C@H](OC)[C@@H](OC)[C@H]5OC)C[C@@H]34)[C@@H]2CC(=O)O1.CC[C@H]1CCC[C@H](O[C@H]2CC[C@H](N(C)C)[C@@H](C)O2)[C@@H](C)C(=O)C2=C[C@H]3[C@@H]4C[C@H](O[C@@H]5O[C@@H](C)[C@H](OC)[C@@H](OC)[C@H]5OC)C[C@H]4C=C[C@H]3C2CC(=O)O1 study_target="Escherichia coli IAI1" reported=1.02
molecule="C=C1C[C@@H]2[C@H](CC[C@]3(C)C(=O)CC[C@@H]23)[C@@]2(C)C=CC(=O)C=C12 [Exemestane]" study_target="Escherichia coli IAI1" reported=1.05
molecule="O=C1C=CC(=O)C=C1 [1,4-Benzoquinone]" study_target="Escherichia coli IAI1" reported=0.967
molecule="N#Cc1nn(-c2c(Cl)cc(C(F)(F)F)cc2Cl)c(N)c1[S+]([O-])C(F)(F)F (stereo not drawn)" study_target="Escherichia coli IAI1" reported=1.05
molecule=Cc1cc(C(F)(C(F)(F)F)C(F)(F)F)ccc1NC(=O)c1cccc(I)c1C(=O)NC(C)(C)CS(C)(=O)=O study_target="Escherichia coli IAI1" reported=0.989
molecule=CCOP(=S)(OCC)Oc1nc(Cl)c(Cl)cc1Cl study_target="Escherichia coli IAI1" reported=0.986
molecule="CC[C@@H](C(=O)[C@@H](C)[C@@H](O)[C@H](C)[C@@H]1O[C@@H]([C@@H](CC)C(=O)O)CC[C@@H]1C)[C@H]1O[C@]2(C=C[C@@H](O)[C@]3(CC[C@@](C)([C@H]4CC[C@](O)(CC)[C@H](C)O4)O3)O2)[C@H](C)C[C@@H]1C [Salinomycin sodium]" study_target="Escherichia coli IAI1" reported=0.929
molecule="CN1[C@@H]2CC[C@H]1C[C@@H](OC1c3ccccc3CCc3ccccc31)C2 [Deptropine citrate]" study_target="Escherichia coli IAI1" reported=1.04
molecule="O=C(NCNC(=O)NC1C(=O)NC(=O)N1CO)NC1C(=O)NC(=O)N1CO (stereo not drawn) [Imidurea]" study_target="Escherichia coli IAI1" reported=1.01
molecule="CN1[C@@H]2C[C@@H](OC(=O)[C@H](CO)c3ccccc3)C[C@H]1[C@@H]1O[C@@H]12 [Scopolamine hydrochloride]" study_target="Escherichia coli IAI1" reported=1.17
